Data credit: patent US20230257374A1

Assay: Stability test in human plasma
Conditions: human plasma, 37° C., 120 min
Observable: Remaining percentage (%) 120 min
Please answer using the number first and the unit second.

Look up Remaining percentage (%) 120 min for this compound: CC(C)[N+](C)(CCOC(=O)C1c2ccccc2Oc2ccccc21)C(C)C [Propantheline Bromide, reference compound] 0.15%

What would you report for `[2H]C([2H])([2H])c1cccc2cccc(N3CCc4c(nc(OC[C@@H]5CCCN5C([2H])([2H])[2H])nc4N4CCN(C(=O)C=C)[C@@H](CC#N)C4)C3)c12` ? 78.91%

Another compound to check: `[2H]C([2H])([2H])N1CCC[C@H]1COc1nc2c(c(N3CCN(C(=O)C=C)[C@@H](CC#N)C3)n1)CCN(c1cccc3cccc(C)c13)C2` 57.19%

Another compound: `[2H]C([2H])([2H])c1cccc2cccc(N3CCc4c(nc(OC[C@@H]5CCCN5C)nc4N4CCN(C(=O)C=C)[C@@H](CC#N)C4)C3)c12` 58.94%

###

Reported values of pIC50 for individual entries
Test system: PC-9 cell line (K-RAS wild type)
Experiment: cells
Format: cell-based
Conditions: Homo sapiens, PC-9, 96 h; 3D culture, CellTiter-Glo 3D, read on day 4
The meaning of pIC50 here: minus log10 of the concentration in molar units.

Param item = [2H]C([2H])([2H])N1CCC[C@H]1COc1nc2c(c(N3CCN(C(=O)C=C)[C@@H](CC#N)C3)n1)CCN(c1cccc3cccc(C)c13)C2 [Compound 42] ; retrieve measured pIC50. 5.63

And then [2H]C([2H])([2H])c1cccc2cccc(N3CCc4c(nc(OC[C@@H]5CCCN5C([2H])([2H])[2H])nc4N4CCN(C(=O)C=C)[C@@H](CC#N)C4)C3)c12 [Compound 17] , what is it? 5.33

Another compound to check: [2H]C([2H])([2H])c1cccc2cccc(N3CCc4c(nc(OC[C@@H]5CCCN5C)nc4N4CCN(C(=O)C=C)[C@@H](CC#N)C4)C3)c12 [Compound 1] 5.32

###

Assay: in vitro
Conditions: human, Caco-2, pH 7.4
Observable: Papp B→A at 2 h, 10 μM (×10⁻⁶ cm/s)
Answer in ×10⁻⁶ cm/s, number only, no unit symbol.

# Compound, Papp B→A at 2 h, 10 μM (×10⁻⁶ cm/s)
rows = [
    ("[2H]C([2H])([2H])c1cccc2cccc(N3CCc4c(nc(OC[C@@H]5CCCN5C)nc4N4CCN(C(=O)C=C)[C@@H](CC#N)C4)C3)c12 [Compound 1]", 5.5),
]

# get_value(readout='Papp B→A at 2 h, 10 μM', item= COCCc1ccc(OCC(O)CNC(C)C)cc1 (stereo not shown) [Metoprolol] ) 19.5

Also, C=CC(=O)N1CCN(c2nc(=O)n(-c3c(C)ccnc3C(C)C)c3nc(-c4c(O)cccc4F)c(F)cc23)[C@@H](C)C1 [AMG510] please. 27.4

Same question for C[C@H]1O[C@@H](O[C@H]2[C@@H](O)C[C@H](O[C@H]3[C@@H](O)C[C@H](O[C@H]4CC[C@@]5(C)[C@H](CC[C@@H]6[C@@H]5C[C@@H](O)[C@]5(C)[C@@H](C7=CC(=O)OC7)CC[C@]65O)C4)O[C@@H]3C)O[C@@H]2C)C[C@H](O)[C@@H]1O [Digoxin] please. 16.4
